Origin of values: patent US5866545A

# Tested System: interleukin-1β converting enzyme (ICE) (Homo sapiens, UniProt P29466)
# Sequence (P29466 120-297 limits assumed): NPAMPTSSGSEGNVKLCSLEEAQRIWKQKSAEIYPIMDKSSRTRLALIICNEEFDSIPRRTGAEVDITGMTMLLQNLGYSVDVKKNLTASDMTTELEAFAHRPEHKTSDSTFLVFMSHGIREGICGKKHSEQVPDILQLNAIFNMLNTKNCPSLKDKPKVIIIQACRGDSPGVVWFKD
# Sequence (P29466 317-404 limits assumed): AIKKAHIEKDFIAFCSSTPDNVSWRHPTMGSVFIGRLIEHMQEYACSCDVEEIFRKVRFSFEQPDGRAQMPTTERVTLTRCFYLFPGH
# Assay Notes: Fluorometric assay of inhibition of ICE hydrolysis of peptide substrate Ac-Tyr-Val-Ala-Asp-AMC
# Assay type: biochemical
# Condition Description: irreversible inhibition
Quick reference for kon among some compounds
Measurement Name: kon (M⁻¹ s⁻¹)

Compound | Unit Text | Value
C=CCOC(=O)NC(CC(=O)O)C(=O)COc1cc2ccccc2cc1C(=O)NCCO (centres unmarked) [Example 9] | M⁻¹ s⁻¹ | 1000
NC(=O)c1cc2ccccc2cc1OCC(=O)C(CC(=O)O)NC(=O)c1cc2ccccc2[nH]1 (centres unmarked) [Example 14] | M⁻¹ s⁻¹ | 390

----------
Here's what we have: Ki numbers for interleukin-1β converting enzyme (ICE) (Homo sapiens, UniProt P29466).
Measurement Name: Ki (nM)

Molecule | Measurement Name | Unit Text | Value
C=CCOC(=O)NC(CC(=O)O)C(=O)COc1cc2ccccc2cc1C(=O)NCCO (stereo not shown) | Ki | nM | 520
C=CCOC(=O)NC(CC(=O)O)C(=O)COc1cc2ccccc2cc1-n1ccnc1 (stereo not shown) | Ki | nM | 90
C=CCOC(=O)NC(CC(=O)O)C(=O)COc1cccc2ccccc12 (stereo not shown) | Ki | nM | 9500
C=CCOC(=O)NC(CC(=O)O)C(=O)COc1cc2ccccc2cc1C#N (stereo not shown) | Ki | nM | 620
CC(=O)N[C@@H](Cc1ccc(O)cc1)C(=O)N[C@H](C(=O)N[C@@H](C)C(=O)NC(CC(=O)O)C(=O)COc1ccccc1)C(C)C (stereo partly shown) | Ki | nM | 3
C=CCOC(=O)NC(CC(=O)O)C(=O)COc1cc2ccccc2cc1C(N)=O (stereo not shown) | Ki | nM | 300
C=CCOC(=O)NC(CC(=O)O)C(=O)COc1cc2ccccc2cc1C(=O)Nc1ccccc1 (stereo not shown) | Ki | nM | 500

----------
# Tested System: interleukin-1β converting enzyme (ICE) (Homo sapiens, UniProt P29466)
# Assay Notes: Fluorometric assay of inhibition of ICE hydrolysis of peptide substrate Ac-Tyr-Val-Ala-Asp-AMC
# Assay type: biochemical
# Condition Description: irreversible inhibition
Quick reference for kon among some molecules

Molecule | kon
CC(C)[C@H](NC(=O)OCc1ccccc1)C(=O)N[C@@H](C)C(=O)NC(CC(=O)O)C(=O)COc1cc2ccccc2cc1C(N)=O.CCN(CC)CC (stereo partly drawn) [Example 12] | 430,000 M^-1 s^-1
C=CCOC(=O)NC(CC(=O)O)C(=O)COc1cc2ccccc2cc1-n1ccnc1 (stereo not drawn) [Example 10] | 12,000 M^-1 s^-1
CC(C)[C@H](NC(=O)OCc1ccccc1)C(=O)N1CCC[C@H]1C(=O)NC(CC(=O)O)C(=O)COc1cc2ccccc2cc1C(N)=O (stereo partly drawn) [Example 13] | 340,000 M^-1 s^-1
